# MEASURED_ON: Estrogen receptor (Homo sapiens, UniProt P03372)
# Sequence (P03372 whole entry): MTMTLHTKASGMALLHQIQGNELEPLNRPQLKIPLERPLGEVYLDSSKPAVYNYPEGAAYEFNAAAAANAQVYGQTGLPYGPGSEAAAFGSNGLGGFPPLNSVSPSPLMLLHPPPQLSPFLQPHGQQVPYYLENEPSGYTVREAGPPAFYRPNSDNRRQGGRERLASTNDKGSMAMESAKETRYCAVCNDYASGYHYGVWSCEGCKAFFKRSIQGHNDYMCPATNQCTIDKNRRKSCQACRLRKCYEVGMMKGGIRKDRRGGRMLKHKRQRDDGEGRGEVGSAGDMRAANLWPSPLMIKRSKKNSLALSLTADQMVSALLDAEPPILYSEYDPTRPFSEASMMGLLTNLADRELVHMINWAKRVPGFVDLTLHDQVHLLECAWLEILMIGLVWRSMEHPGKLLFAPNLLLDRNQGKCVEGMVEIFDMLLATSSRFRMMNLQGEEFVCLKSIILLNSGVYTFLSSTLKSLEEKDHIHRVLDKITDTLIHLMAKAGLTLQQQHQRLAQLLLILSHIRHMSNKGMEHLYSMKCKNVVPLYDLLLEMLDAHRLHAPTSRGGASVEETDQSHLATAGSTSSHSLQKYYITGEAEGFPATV
Activity calls are given as the source filed them.

ITEM_SMILES: Fc1ccc(-c2nnc(-n3nnc4ccccc43)c3ccccc23)cc1
MEASURED_ON: Estrogen receptor (Homo sapiens, UniProt P03372)
IC50: 26.3 µM (active)
--
ITEM_SMILES: Cc1cc(C)c(NC(=O)CSc2nc3ccc(NC(=O)CSc4nnnn4Cc4ccccc4)cc3s2)c(C)c1
MEASURED_ON: Estrogen receptor (Homo sapiens, UniProt P03372)
IC50: > 50 µM (not active)
--
ITEM_SMILES: CCOC(=O)CCC(=O)Nc1ccccc1C(N)=O
MEASURED_ON: Estrogen receptor (Homo sapiens, UniProt P03372)
IC50: > 50 µM (not active)
--
ITEM_SMILES: N#Cc1c(NC(=O)CSc2ncccn2)oc(-c2ccccc2)c1-c1ccccc1
MEASURED_ON: Estrogen receptor (Homo sapiens, UniProt P03372)
IC50: 9.58 µM (active)
--
ITEM_SMILES: C=CCn1c(=O)c(C#N)cc2c(=O)n3ccccc3nc21
MEASURED_ON: Estrogen receptor (Homo sapiens, UniProt P03372)
IC50: 44.7 µM (not active)
--
ITEM_SMILES: COc1ccccc1C(=O)Nc1nc(-c2cccs2)c(NC(C)=O)s1
MEASURED_ON: Estrogen receptor (Homo sapiens, UniProt P03372)
IC50: 19 µM (active)
